- systemTested: T1, CD27 expressed on the cell surface (HT1080_CD27 cells) (human, UniProt P26842 20-260)
- T1 construct: whole, on cells; also called K562_CD27
- T1 sequence (looked up): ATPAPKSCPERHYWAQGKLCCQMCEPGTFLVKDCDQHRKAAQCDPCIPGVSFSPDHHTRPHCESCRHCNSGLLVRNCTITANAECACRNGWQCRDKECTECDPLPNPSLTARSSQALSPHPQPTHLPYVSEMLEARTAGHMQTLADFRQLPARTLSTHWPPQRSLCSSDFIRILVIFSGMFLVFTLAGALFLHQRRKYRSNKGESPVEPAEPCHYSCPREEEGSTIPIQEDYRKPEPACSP
- procedureDetails: cellular binding assay, HT1080_CD27 cells; further: test concentration or dose not given here
Exercise: state measured Cellular binding assay [RFU] for each of the binders provided.
Answer format: numeric, RFU implied, no suffix.

Given P018.S.09.A.H04 (antibody, V domains shown, V regions on human Ig constant parts; also called AB27_161) VH: QSVEESGGRLVTPGTPLTLTCTVSGFSLSSYVMSWVRQAPGKGLEWIGYSDYGGTAYYANWAKGRFTISKTSTTVELKITSPTIEDTATYFCARGGYDGYLLVTGLWGPGTLVTVSS VL: DIVMTQTPASVSEPVGGTVTIKCQASQSISSYLAWYQQKPGQPPKLLIYSASTLASGVSSRFKGSGSGTEYTLTISDLESADAATYYCQTYYGGGPFGNGFGGGTEVVVK , state its recorded Cellular binding assay [RFU].
314

Moving on to the next binder: P018.S.01.A.D05 (antibody, V domains shown, V regions on human Ig constant parts; also called AB27_13) VH: QSLEESGGRLVTPGTPLTLTCTASGFSLSSYYMSWVRQAPGKGLEYIGGIYTGGSAYYASWARGRFTISRTSTTVDLKMTSLTIEDTATYFCARDAGDRIYTTFNLWGPGTLVTVSS VL: ALVMTQTPASVSEPVGGTVSLKCQASQSIGSDLSWYQQKSGQPPKLLIYRASKLASGVPSRFKGSGSGTEFTLTISGVQSDDAATYYCLGIDSYSSDDGIAFGGGTEVVVK
273

Moving on to the next binder: P018.S.04.A.E02 (antibody, V domains shown, V regions on human Ig constant parts; also called AB27_74) VH: QSVEESGGRLVTPGTPLTLTCTVSGFSLNNYDMNWVRQAPGKGLEWVGYIDTGGSAYYASWVNGRFTISKTSTTVELKMTSLTASDTATYFCARGYTHGYLWGQGTLVTVSS VL: ALVMTQTPSSVSAAVGGTVTINCQASQNVYNNLAWYQQKPGQPPKLLIDSASTLASGVSSRFKGSGSGTEFTLTISDLESADAATYYCQSADWESSNFFWAFGGGTEVVVK
463
